experimental.details: Pharmacokinetics of inhaled quaternary ammonium salts, plasma levels
Assay type: in vivo, Balb/c mice
conditions: Balb/c, mouse, plasma, inhaled; inhalation of 1.44 mg/ml, 2 h; read-out: Plasma concentration ± std dev
readout.name: concentration at 2 h (ng/mL)
Give the quantity in ng/mL, number only.

# input Record request: concentration at 2 h value, item Cc1ccc(O)c([C@H](CC[N+](C)(C(C)C)C(C)C)c2ccccc2)c1.[I-] [Example 2]
# output 0.245

====

experimental.details: Pharmacokinetics of inhaled quaternary ammonium salts, plasma levels
Assay type: in vivo, Balb/c mice
conditions: Balb/c, mouse, plasma, inhaled; inhalation of 0.144 mg/ml, 10 min; read-out: Plasma concentration ± std dev
readout.name: concentration at 10 min (ng/mL)
Give the quantity in ng/mL, number only.

# input Record request: concentration at 10 min value, item `Cc1ccc(O)c([C@H](CC[N+](C)(C(C)C)C(C)C)c2ccccc2)c1.[I-]`
# output 0.162

====

test.target: muscarinic receptor M3 (Homo sapiens)
Construct: expressed in transfected cells
Sequence (P20309 whole entry): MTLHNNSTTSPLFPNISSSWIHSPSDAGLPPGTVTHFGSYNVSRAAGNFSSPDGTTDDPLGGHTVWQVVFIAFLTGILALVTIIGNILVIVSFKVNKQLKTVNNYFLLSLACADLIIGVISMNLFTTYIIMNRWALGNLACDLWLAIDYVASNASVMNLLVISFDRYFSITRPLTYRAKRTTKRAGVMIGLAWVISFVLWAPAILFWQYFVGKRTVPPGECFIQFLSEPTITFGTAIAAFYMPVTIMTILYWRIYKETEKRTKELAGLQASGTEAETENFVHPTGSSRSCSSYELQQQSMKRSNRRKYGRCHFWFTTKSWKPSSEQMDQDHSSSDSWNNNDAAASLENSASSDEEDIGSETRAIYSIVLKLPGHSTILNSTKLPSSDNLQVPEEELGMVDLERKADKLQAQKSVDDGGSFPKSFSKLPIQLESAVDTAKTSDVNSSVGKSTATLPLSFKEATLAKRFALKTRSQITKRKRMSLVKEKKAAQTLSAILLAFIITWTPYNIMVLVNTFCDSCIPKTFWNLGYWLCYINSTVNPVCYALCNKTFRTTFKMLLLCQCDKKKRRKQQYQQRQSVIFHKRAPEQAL
experimental.details: Muscarinic receptor subtype M3 binding assay, radioligand displacement
conditions: [3]H-methylscopolamine displacement, membranes from recombinant mammalian cell lines; read-out: Ki values, receptor subtype M3
Description: Muscarinic receptor subtype M1-M5 binding assays were carried out. Briefly, [3]H-methylscopolamine was allowed to bind to membranes from various recombinant mammalian cell lines, each with an over-expression of a particular receptor subtype. Muscarinic receptor subtype M1-M5 binding assays were performed.
pKi: −log10 of the molar value.
Tag: yes if measured pKi is not below 9, no if it is.

The following compounds have reported results that may help.
compound="CC[N+]1(CCC(c2ccccc2)c2cc(C)ccc2O)CCCC1.[I-] (stereo not shown) [Example 32]" test_target="muscarinic receptor M3 (Homo sapiens)" category_label=no
compound="Cc1ccc(O)c(C(CC[N+]2(C)CCCCC2)c2ccccc2)c1.[I-] (stereo not shown) [Example 33]" test_target="muscarinic receptor M3 (Homo sapiens)" category_label=no
compound="Cc1ccc(O)c(C(CC[N+]2(C)CCCCCC2)c2ccccc2)c1.[I-] (stereo not shown) [Example 34]" test_target="muscarinic receptor M3 (Homo sapiens)" category_label=no

# input Hi team, for Cc1ccc(O)c(C(CC[N+]2(C)CCCC2)c2ccccc2)c1.[I-] (stereo not shown) [Example 31] , is the recorded pKi at or above 9?
# output no

# input // query: Cc1ccc(O)c([C@H](CC[N+](C)(C(C)C)C(C)C)c2ccccc2)c1.[Br-] [Example 3]
# output yes

====

experimental.details: Pharmacokinetics of inhaled quaternary ammonium salts, plasma levels
Assay type: in vivo, Balb/c mice
conditions: Balb/c, mouse, plasma, inhaled; inhalation of 1.44 mg/ml, 8 h; read-out: Plasma concentration ± std dev
readout.name: concentration at 8 h (ng/mL)
Give the quantity in ng/mL, number only.

# input Record request: concentration at 8 h value, item Cc1ccc(O)c([C@H](CC[N+](C)(C(C)C)C(C)C)c2ccccc2)c1.[I-] [Example 2]
# output 0.08

====

experimental.details: Pharmacokinetics of inhaled quaternary ammonium salts, plasma levels
Format: in vivo, Balb/c mice
conditions: Balb/c, mouse, plasma, inhaled; inhalation of 0.144 mg/ml, 4 h; read-out: Plasma concentration ± std dev
readout.name: concentration at 4 h (ng/mL)
Give the quantity in ng/mL, number only.

# input Record request: concentration at 4 h value, item `Cc1ccc(O)c([C@H](CC[N+](C)(C(C)C)C(C)C)c2ccccc2)c1.[I-]`
# output 0.04

====

experimental.details: Pharmacokinetics of inhaled quaternary ammonium salts, plasma levels
Format: in vivo, Balb/c mice
conditions: Balb/c, mouse, plasma, inhaled; inhalation of 0.072 mg/ml, 10 min; read-out: Plasma concentration ± std dev
readout.name: concentration at 10 min

# input Record request: concentration at 10 min value, item `Cc1ccc(O)c([C@H](CC[N+](C)(C(C)C)C(C)C)c2ccccc2)c1.[I-]`
# output 0.09 ng/mL

====

Tested on: methacholine-induced bronchoconstriction in Balb/c mice
experimental.details: Bronchodilatory effect of inhaled compounds, Example VIII (% inhibition)
Format: in vivo
conditions: inhalation of 1 mg/mL FBE, 10 min after dosing
Below is a list of entries, each paired with its recorded % inhibition of bronchoconstriction after 10 min value.
Give the quantity in %, number only.

Worked examples, 5 compounds total:
compound="Cc1ccc(O)c(C(CC[N+]2(C)CCCCC2)c2ccccc2)c1.[I-] (stereo not drawn)" test_target="methacholine-induced bronchoconstriction in Balb/c mice" obs_value=100
compound="Cc1ccc(O)c(C(CC[N+]2(C)CCCCCC2)c2ccccc2)c1.[I-] (stereo not drawn)" test_target="methacholine-induced bronchoconstriction in Balb/c mice" obs_value=100
compound=CC(C)[N+](C)(CC[C@H](c1ccccc1)c1cc(CO)ccc1O)C(C)C.[I-] test_target="methacholine-induced bronchoconstriction in Balb/c mice" obs_value=82
compound="Cc1ccc(O)c(C(CC[N+]2(C)CCCC2)c2ccccc2)c1.[I-] (stereo not drawn)" test_target="methacholine-induced bronchoconstriction in Balb/c mice" obs_value=100
compound=Cc1ccc(O)c([C@H](CC[N+](C)(C(C)C)C(C)C)c2ccccc2)c1.[Br-] test_target="methacholine-induced bronchoconstriction in Balb/c mice" obs_value=100

Now, please, on to the next compound.
# input Record request: % inhibition of bronchoconstriction after 10 min value, item CC[N+]1(CCC(c2ccccc2)c2cc(C)ccc2O)CCCC1.[I-] (stereo not drawn)
# output 100

====

test.target: muscarinic receptor M1 (Homo sapiens, UniProt P11229)
Construct: expressed in transfected cells
Sequence (P11229 1-460): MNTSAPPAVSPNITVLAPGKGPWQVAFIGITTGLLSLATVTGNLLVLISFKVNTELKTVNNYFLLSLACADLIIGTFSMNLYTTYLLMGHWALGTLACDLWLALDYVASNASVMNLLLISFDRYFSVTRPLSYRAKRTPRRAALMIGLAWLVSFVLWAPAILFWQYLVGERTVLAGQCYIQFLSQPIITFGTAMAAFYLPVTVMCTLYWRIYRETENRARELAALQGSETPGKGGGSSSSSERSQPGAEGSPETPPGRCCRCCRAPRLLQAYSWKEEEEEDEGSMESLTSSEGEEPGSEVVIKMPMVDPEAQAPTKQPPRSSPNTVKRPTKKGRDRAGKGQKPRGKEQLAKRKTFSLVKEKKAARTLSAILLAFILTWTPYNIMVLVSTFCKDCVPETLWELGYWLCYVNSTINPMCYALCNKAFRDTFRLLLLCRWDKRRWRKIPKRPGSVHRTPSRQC
experimental.details: Muscarinic receptor subtype M1 binding assay, radioligand displacement
conditions: [3]H-methylscopolamine displacement, membranes from recombinant mammalian cell lines
Below is a list of entries, each paired with its recorded pKi value.
Would you please state pKi, meaning minus log10 of the concentration in mol/L, as a bare number?

Worked examples, 5 compounds total:
compound="CC[N+]1(CCC(c2ccccc2)c2cc(C)ccc2O)CCCC1.[I-] (stereo not shown)" obs_value=8.96
compound="CC(C)N(CC[C@H](c1ccccc1)c1cc(CO)ccc1O)C(C)C [Hydroxytolterodine, reference compound]" obs_value=8.82
compound=Cc1ccc(O)c([C@H](CC[N+](C)(C(C)C)C(C)C)c2ccccc2)c1.[Br-] obs_value=9.52
compound="Cc1ccc(O)c(C(CC[N+]2(C)CCCC2)c2ccccc2)c1.[I-] (stereo not shown)" obs_value=8.92
compound="Cc1ccc(O)c(C(CC[N+]2(C)CCCCCC2)c2ccccc2)c1.[I-] (stereo not shown)" obs_value=9.00

# input Record request: pKi value, item Cc1ccc(O)c(C(CC[N+]2(C)CCCCC2)c2ccccc2)c1.[I-] (stereo not shown)
# output 8.96

# input // query: `CC(C)[N+](C)(CC[C@H](c1ccccc1)c1cc(CO)ccc1O)C(C)C.[I-]`
# output 9.07

====

experimental.details: Pharmacokinetics of inhaled quaternary ammonium salts, plasma levels
Format: in vivo, Balb/c mice
conditions: Balb/c, mouse, plasma, inhaled; inhalation of 0.072 mg/ml, 30 min; read-out: Plasma concentration ± std dev
readout.name: concentration at 30 min (ng/mL)
Give the quantity in ng/mL, number only.

# input Record request: concentration at 30 min value, item `Cc1ccc(O)c([C@H](CC[N+](C)(C(C)C)C(C)C)c2ccccc2)c1.[I-]`
# output 0.081

====

test.target: muscarinic receptor M5 (Homo sapiens)
Construct: expressed in transfected cells
Sequence (P08912 1-532): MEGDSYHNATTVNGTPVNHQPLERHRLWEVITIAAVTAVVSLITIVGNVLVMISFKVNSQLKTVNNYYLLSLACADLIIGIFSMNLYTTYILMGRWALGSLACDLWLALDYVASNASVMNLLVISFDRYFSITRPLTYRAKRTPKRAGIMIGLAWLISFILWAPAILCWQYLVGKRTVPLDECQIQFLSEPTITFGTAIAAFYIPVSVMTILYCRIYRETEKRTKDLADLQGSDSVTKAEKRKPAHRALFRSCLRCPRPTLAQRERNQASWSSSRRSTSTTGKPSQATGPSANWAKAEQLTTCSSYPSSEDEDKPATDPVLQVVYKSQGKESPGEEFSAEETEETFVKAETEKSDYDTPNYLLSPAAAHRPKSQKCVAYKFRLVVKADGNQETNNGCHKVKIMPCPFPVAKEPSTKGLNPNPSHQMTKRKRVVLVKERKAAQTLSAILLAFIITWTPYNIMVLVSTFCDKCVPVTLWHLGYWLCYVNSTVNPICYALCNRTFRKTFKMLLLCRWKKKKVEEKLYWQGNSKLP
experimental.details: Muscarinic receptor subtype M5 binding assay, radioligand displacement
conditions: Ki values, receptor subtype M5, [3]H-methylscopolamine displacement, membranes from recombinant mammalian cell lines
readout.name: Ki (nM)
Give the quantity in nM, number only.

# input Record request: Ki value, item `Cc1ccc(O)c([C@H](CC[N+](C)(C(C)C)C(C)C)c2ccccc2)c1.[I-]`
# output 0.25
